# System Under Test: DNA topoisomerase 1 (Homo sapiens) (UniProt P11387)
# Sequence (P11387 whole entry): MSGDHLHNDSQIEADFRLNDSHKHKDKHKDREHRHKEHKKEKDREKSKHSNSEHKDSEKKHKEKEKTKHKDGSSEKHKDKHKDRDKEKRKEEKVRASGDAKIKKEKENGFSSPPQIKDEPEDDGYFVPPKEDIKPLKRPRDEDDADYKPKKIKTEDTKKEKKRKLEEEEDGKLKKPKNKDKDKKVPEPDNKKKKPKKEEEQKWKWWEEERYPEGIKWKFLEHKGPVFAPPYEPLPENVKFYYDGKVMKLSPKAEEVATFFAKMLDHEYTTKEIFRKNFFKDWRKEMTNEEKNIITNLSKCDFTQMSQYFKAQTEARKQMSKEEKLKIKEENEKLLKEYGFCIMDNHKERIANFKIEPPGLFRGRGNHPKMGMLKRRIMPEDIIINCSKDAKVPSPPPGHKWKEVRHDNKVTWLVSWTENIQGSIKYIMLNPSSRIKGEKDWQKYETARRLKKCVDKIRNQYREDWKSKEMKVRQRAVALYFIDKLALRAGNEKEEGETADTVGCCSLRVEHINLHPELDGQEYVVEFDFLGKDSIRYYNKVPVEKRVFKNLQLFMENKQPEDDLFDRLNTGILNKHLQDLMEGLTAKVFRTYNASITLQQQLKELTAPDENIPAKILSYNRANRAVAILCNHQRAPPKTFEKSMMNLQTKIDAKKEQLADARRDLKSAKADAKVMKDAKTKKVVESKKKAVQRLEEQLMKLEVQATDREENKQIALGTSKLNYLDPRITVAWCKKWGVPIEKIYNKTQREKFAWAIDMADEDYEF
# Assay: Inhibition of recombinant topoisomerase-1 (unknown origin) assessed as inhibition of 3'-[32P]-labeled DNA cleavage at 0.1 to 100 uM after 20 mins by PAGE analysis relative to control
The source made the active and inactive calls. The calls are words filed in the database; no cut-off is given here.
Measured Parameter: inhibition

INSERT INTO results (compound, reported_result) VALUES
  ('O=C1c2ccccc2-c2c1c1ccc([N+](=O)[O-])cc1c(=O)n2C[C@@H](O)CO', '75%'),
  ('COc1cc2c3c(n(CC(O)CO)c(=O)c2cc1OC)-c1cc2c(cc1C3=O)OCO2 (racemic)', 'Active'),
  ('COc1cc2c3c(n(C[C@@H](O)CO)c(=O)c2cc1OC)-c1cc2c(cc1C3=O)OCO2', 'Active'),
  ('COc1cc2c3c(n(C[C@H](O)CO)c(=O)c2cc1OC)-c1cc2c(cc1C3=O)OCO2', 'Active'),
  ('COc1cc2c3c(n(C[C@@H](O)[C@@H](O)[C@H](O)CO)c(=O)c2cc1OC)-c1cc2c(cc1C3=O)OCO2', 'Active'),
  ('COc1cc2c3c(n(C[C@@H]4O[C@H](CO)[C@@H](O)[C@H](O)[C@H]4O)c(=O)c2cc1OC)-c1cc2c(cc1C3=O)OCO2', '50%'),
  ('COc1cc2c3c(n(C[C@H](O)[C@H](O)[C@H](O)CO)c(=O)c2cc1OC)-c1cc2c(cc1C3=O)OCO2', '75%'),
  ('COc1cc2c3c(n(C[C@H](O)[C@@H](O)[C@H](O)[C@H](O)CO)c(=O)c2cc1OC)-c1cc2c(cc1C3=O)OCO2', '75%');

Challenge: Complete the entry with inhibition for `COc1cc2c3c(n(C[C@@H](O)[C@H](O)[C@H](O)CO)c(=O)c2cc1OC)-c1cc2c(cc1C3=O)OCO2`
Response given: 75%

Challenge: Provide inhibition value for the following compound: `O=C1c2ccccc2-c2c1c1ccc([N+](=O)[O-])cc1c(=O)n2C[C@H](O)[C@@H](O)[C@@H](O)[C@H](O)CO`
Response given: Active

Challenge: Note inhibition for the compound shown: `O=C1c2ccccc2-c2c1c1ccc([N+](=O)[O-])cc1c(=O)n2C[C@@H](O)[C@H](O)[C@H](O)CO`
Response given: Active

Challenge: Find the measured inhibition of `COc1cc2c3c(n(C[C@H](O)[C@@H](O)[C@@H](O)[C@H](O)CO)c(=O)c2cc1OC)-c1cc2c(cc1C3=O)OCO2` and report it.
Response given: 50%

Challenge: For `COc1cc2c3c(n(C[C@@H](O)[C@@H](O)[C@H](O)[C@H](O)CO)c(=O)c2cc1OC)-c1cc2c(cc1C3=O)OCO2` , write its inhibition.
Response given: Active

* * *

# Test system: MCF7
# Assay: Growth inhibition of human MCF7 cells
# Format: functional
Label Met when GI50 < 100 nM; otherwise Not met.

Challenge: GI50 under 100 nM? Item: `O=C1c2ccccc2-c2c1c1ccc([N+](=O)[O-])cc1c(=O)n2C[C@@H](O)[C@H](O)[C@H](O)CO`
Response given: Not met

Challenge: Please state whether GI50 is below 100 nM for `COc1cc2c3c(n(C[C@@H](O)CO)c(=O)c2cc1OC)-c1cc2c(cc1C3=O)OCO2`
Response given: Met

Challenge: API: query returns whether the compound falls strictly under 100 nM in GI50. Query: `COc1cc2c3c(n(C[C@@H](O)[C@@H](O)[C@H](O)CO)c(=O)c2cc1OC)-c1cc2c(cc1C3=O)OCO2`
Response given: Met

Challenge: Consider `O=C1c2ccccc2-c2c1c1ccc([N+](=O)[O-])cc1c(=O)n2C[C@@H](O)[C@@H](O)[C@H](O)CO` . Does its GI50 lie strictly below 100 nM?
Response given: Not met

Challenge: Is GI50 strictly under 100 nM for the entry `COc1cc2c3c(n(C[C@H](O)[C@H](O)[C@H](O)CO)c(=O)c2cc1OC)-c1cc2c(cc1C3=O)OCO2` ?
Response given: Met

Challenge: Find out if reported GI50 for O=C1c2ccccc2-c2c1c1ccc([N+](=O)[O-])cc1c(=O)n2CC(O)CO (racemic) is less than 100 nM
Response given: Met

Challenge: Is 100 nM strictly greater than the compound's reported GI50? compound: `COc1cc2c3c(n(C[C@H](O)[C@@H](O)[C@H](O)CO)c(=O)c2cc1OC)-c1cc2c(cc1C3=O)OCO2`
Response given: Met

Challenge: Quick check: does `O=C1c2ccccc2-c2c1c1ccc([N+](=O)[O-])cc1c(=O)n2C[C@H](O)[C@H](O)[C@H](O)CO` have GI50 under 100 nM?
Response given: Not met

Challenge: Consider the compound COc1cc2c3c(n(CC(O)CO)c(=O)c2cc1OC)-c1cc2c(cc1C3=O)OCO2 (racemic) . Is its GI50 strictly less than 100 nM?
Response given: Met

Challenge: Say whether its GI50 is strictly beneath 100 nM. Entry: `O=C1c2ccccc2-c2c1c1ccc([N+](=O)[O-])cc1c(=O)n2C[C@H](O)[C@@H](O)[C@@H](O)[C@H](O)CO`
Response given: Not met

Challenge: Determine if `COc1cc2c3c(n(C[C@H](O)CO)c(=O)c2cc1OC)-c1cc2c(cc1C3=O)OCO2` shows GI50 strictly lower than 100 nM.
Response given: Met

Challenge: Report whether reported GI50 is lower than 100 nM (strictly) for `COc1cc2c3c(n(C[C@@H](O)[C@H](O)[C@H](O)CO)c(=O)c2cc1OC)-c1cc2c(cc1C3=O)OCO2`
Response given: Not met

Challenge: Field: below-cutoff. Rule: recorded GI50 strictly less than 100 nM. Subject: `O=C1c2ccccc2-c2c1c1ccc([N+](=O)[O-])cc1c(=O)n2C[C@@H](O)[C@@H](O)[C@H](O)[C@H](O)CO`
Response given: Not met

Challenge: Is 100 nM strictly greater than the compound's reported GI50? compound: `O=C1c2ccccc2-c2c1c1ccc([N+](=O)[O-])cc1c(=O)n2C[C@@H](O)CO`
Response given: Met

Challenge: In plain terms, does `O=C1c2ccccc2-c2c1c1ccc([N+](=O)[O-])cc1c(=O)n2C[C@H](O)[C@@H](O)[C@H](O)CO` come in under 100 nM for GI50?
Response given: Met

* * *

# System Under Test: Tyrosyl-DNA phosphodiesterase 1 (Homo sapiens)
# Sequence (Q9NUW8 whole entry): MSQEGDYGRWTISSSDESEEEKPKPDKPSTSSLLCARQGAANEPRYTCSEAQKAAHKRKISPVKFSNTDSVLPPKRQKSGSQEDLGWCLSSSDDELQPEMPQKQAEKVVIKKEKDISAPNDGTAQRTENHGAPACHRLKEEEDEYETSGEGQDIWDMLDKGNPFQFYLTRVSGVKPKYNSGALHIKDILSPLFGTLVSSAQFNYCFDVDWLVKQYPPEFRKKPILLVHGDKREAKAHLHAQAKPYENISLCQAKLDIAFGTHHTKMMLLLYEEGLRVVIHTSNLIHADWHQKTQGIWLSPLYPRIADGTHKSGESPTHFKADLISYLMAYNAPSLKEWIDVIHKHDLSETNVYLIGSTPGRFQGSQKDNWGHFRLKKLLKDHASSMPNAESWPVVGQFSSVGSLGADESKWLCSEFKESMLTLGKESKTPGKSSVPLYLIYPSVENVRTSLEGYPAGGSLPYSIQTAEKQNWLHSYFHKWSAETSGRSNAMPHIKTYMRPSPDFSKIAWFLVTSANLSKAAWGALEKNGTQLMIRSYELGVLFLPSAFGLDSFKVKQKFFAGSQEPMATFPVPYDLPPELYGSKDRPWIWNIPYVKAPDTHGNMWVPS
# Assay: Inhibition of recombinant TDP1 (unknown origin) using N14Y as substrate after 15 mins by PAGE analysis
Measured Parameter: IC50

Challenge: Dear colleague, please send me the reported IC50 for COc1cc2c3c(n(CC(O)CO)c(=O)c2cc1OC)-c1cc2c(cc1C3=O)OCO2 (racemic) when you can.
Response given: > 111 µM

Challenge: Annotate the molecule `O=C1c2ccccc2-c2c1c1ccc([N+](=O)[O-])cc1c(=O)n2C[C@@H](O)CO` with its measured IC50.
Response given: > 111 µM

Challenge: Fill in IC50 for record `O=C1c2ccccc2-c2c1c1ccc([N+](=O)[O-])cc1c(=O)n2C[C@H](O)[C@@H](O)[C@@H](O)[C@H](O)CO`
Response given: > 111 µM

Challenge: Name the recorded IC50 of the item O=C1c2ccccc2-c2c1c1ccc([N+](=O)[O-])cc1c(=O)n2CC(O)CO (racemic) in your answer.
Response given: > 111 µM

Challenge: Assign IC50 to the following record: `O=C1c2ccccc2-c2c1c1ccc([N+](=O)[O-])cc1c(=O)n2C[C@H](O)[C@H](O)[C@H](O)CO`
Response given: > 111 µM

Challenge: Determine its reported IC50: `COc1cc2c3c(n(C[C@@H](O)[C@@H](O)[C@H](O)[C@H](O)CO)c(=O)c2cc1OC)-c1cc2c(cc1C3=O)OCO2`
Response given: > 111 µM

Challenge: Report IC50, nothing else, for this molecule: `COc1cc2c3c(n(C[C@@H](O)[C@@H](O)[C@H](O)CO)c(=O)c2cc1OC)-c1cc2c(cc1C3=O)OCO2`
Response given: > 111 µM

Challenge: Please look at this molecule and report its IC50: `COc1cc2c3c(n(C[C@@H](O)[C@H](O)[C@H](O)CO)c(=O)c2cc1OC)-c1cc2c(cc1C3=O)OCO2`
Response given: > 111 µM

Challenge: Identify IC50 associated with the molecule `COc1cc2c3c(n(C[C@H](O)CO)c(=O)c2cc1OC)-c1cc2c(cc1C3=O)OCO2`
Response given: > 111 µM

Challenge: Hello, please tell me recorded IC50 for this one: `COc1cc2c3c(n(C[C@@H](O)CO)c(=O)c2cc1OC)-c1cc2c(cc1C3=O)OCO2`
Response given: > 111 µM

Challenge: Using the record for `COc1cc2c3c(n(C[C@H](O)[C@@H](O)[C@H](O)CO)c(=O)c2cc1OC)-c1cc2c(cc1C3=O)OCO2` , state its measured IC50.
Response given: > 111 µM

Challenge: Output measured IC50 for this item: `COc1cc2c3c(n(C[C@H](O)[C@@H](O)[C@H](O)[C@H](O)CO)c(=O)c2cc1OC)-c1cc2c(cc1C3=O)OCO2`
Response given: > 111 µM
